test system: 439559-082-T-J2-PDC spheroids viability; assay: Anticancer human tumor 439559-082-T-J2-PDC patient-derived colon adenocarcinoma cell line growth inhibition [GQUAD]; conditions: second compound 1 µM; first compound 10 µM; stronger effect = lower value
Kindly supply the reported viability, T/C values for the records listed here.

Worked cases, viability, T/C given:
COc1cc(C2c3cc4c(cc3C(OC3OC5COC(C)OC5C(O)C3O)C3COC(=O)C23)OCO4)cc(OC)c1O (stereo not given) + CN(C)c1ccc(Nc2c3ccc(NC(=O)CCN4CCCC4)cc3nc3cc(NC(=O)CCN4CCCC4)ccc23)cc1	57%
COc1ncnc(C2CC2)c1-c1ncc2cnn(Cc3ccc(-c4nc(C(F)(F)F)cn4C(C)C)cc3)c2n1 + CN(C)c1ccc(Nc2c3ccc(NC(=O)CCN4CCCC4)cc3nc3cc(NC(=O)CCN4CCCC4)ccc23)cc1	92.7%
CC1COCCN1c1cc(C2(O)CC3CCC(C2)O3)c2cnn(-c3ccn[nH]3)c2n1 (stereo not given) + CN(C)c1ccc(Nc2c3ccc(NC(=O)CCN4CCCC4)cc3nc3cc(NC(=O)CCN4CCCC4)ccc23)cc1	32.4%
CC1COCCN1c1cc(C2(O)CC3CCC(C2)O3)c2cnn(-c3ccn[nH]3)c2n1 (stereo not given) + Cc1cnc(CNC(=O)c2c(=O)c3ccc(N4CCCN(C)CC4)nc3n3c2sc2ccccc23)cn1	26.6%

We now examine a further compound.
Item under review: CC1COCCN1c1cc(C2(O)CC3CCC(C2)O3)c2cnn(-c3ccn[nH]3)c2n1 (stereo not given) + Cc1[nH]c2ccc(F)cc2c1-c1nc2c3cccnc3c3ncccc3c2[nH]1 . Reported viability, T/C?
33.4%

---

Provide the recorded log10 IC50 for the entries that follow.
test system: 439559-082-T-J2-PDC spheroids viability; experiment: Anticancer human tumor 439559-082-T-J2-PDC cell line growth inhibition [GQUAD]; settings: curve of first compound; second compound 0.0316 µM;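 further: spheroids exposed to the agents for 7 days before readout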
Friendly reminder: values = log10 of IC50, unit nM.

CC(C)(O)C1CCC(Nc2ccc3ncc(-c4cccc(C(F)(F)F)c4)n3n2)CC1 (stereo not given) + CN(C)c1ccc(Nc2c3ccc(NC(=O)CCN4CCCC4)cc3nc3cc(NC(=O)CCN4CCCC4)ccc23)cc1	3.20
CC1COCCN1c1cc(C2(O)CC3CCC(C2)O3)c2cnn(-c3ccn[nH]3)c2n1 (stereo not given) + Cc1cnc(CNC(=O)c2c(=O)c3ccc(N4CCCN(C)CC4)nc3n3c2sc2ccccc23)cn1	2.95
CC(C)(O)C1CCC(Nc2ccc3ncc(-c4cccc(C(F)(F)F)c4)n3n2)CC1 (stereo not given) + Cc1cnc(CNC(=O)c2c(=O)c3ccc(N4CCCN(C)CC4)nc3n3c2sc2ccccc23)cn1	3.23
CCc1c2c(nc3ccc(O)cc13)-c1cc3c(c(=O)n1C2)COC(=O)[C@]3(O)CC + Cc1[nH]c2ccc(F)cc2c1-c1nc2c3cccnc3c3ncccc3c2[nH]1	2.35
CC(=O)O[C@H]1C(=O)[C@@]2(C)[C@H]([C@H](OC(=O)c3ccccc3)[C@]3(O)C[C@H](OC(=O)[C@H](O)[C@@H](NC(=O)c4ccccc4)c4ccccc4)C(C)=C1C3(C)C)[C@]1(OC(C)=O)CO[C@@H]1C[C@@H]2O + Cc1[nH]c2ccc(F)cc2c1-c1nc2c3cccnc3c3ncccc3c2[nH]1	2.54

Reported log10 IC50 for COc1cccc2c1C(=O)c1c(O)c3c(c(O)c1C2=O)CC(O)(C(=O)CO)CC3OC1CC(N)C(O)C(C)O1 (stereo not given) + Cc1cnc(CNC(=O)c2c(=O)c3ccc(N4CCCN(C)CC4)nc3n3c2sc2ccccc23)cn1 : what is it?
3.61
